So I've got a bunch of sequences here, and I need their Kd values.
# TEST SYSTEM: c-Jun (UniProt P05412)
# Sequence (P05412 252-315): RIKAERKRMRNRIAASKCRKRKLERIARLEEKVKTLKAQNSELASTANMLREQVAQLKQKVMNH
# TEST DESCRIPTION: MITOMI (QPID)
# CONDITION DETAILS: QPID microfluidic MITOMI; 1 h incubation of in vitro expressed extract (about 25 ul, 50 ng protein) with spotted Cy5-dsDNA (0.0156-2 uM spotting dilutions, PEG …)
Write the numeric value and append its unit.

Form: sequence = GGCCACTACCGCTTCCTCCACATGAGTCATGGTTTTCTCCACCAAGGAAGT (double strand) [oligo 3 (AP-1)] ; Kd = 2500 nM

Reported Kd of TTATGACCTGGGAGTGACGTCATGGAATCCACAGA (double strand) [oligo 2 (CRE)] : 2400 nM

GGCCACTACCGCTTCCTCCACATGACGTCATGGTTTTCTCCACCAAGGAAGT (double strand) [oligo 1 (CRE)] yielded Kd of 1300 nM
